Values compiled from ChEMBL document CHEMBL5214927.

- TARGET: Acetylcholinesterase (Rattus norvegicus, UniProt P37136)
- Sequence (P37136 whole entry): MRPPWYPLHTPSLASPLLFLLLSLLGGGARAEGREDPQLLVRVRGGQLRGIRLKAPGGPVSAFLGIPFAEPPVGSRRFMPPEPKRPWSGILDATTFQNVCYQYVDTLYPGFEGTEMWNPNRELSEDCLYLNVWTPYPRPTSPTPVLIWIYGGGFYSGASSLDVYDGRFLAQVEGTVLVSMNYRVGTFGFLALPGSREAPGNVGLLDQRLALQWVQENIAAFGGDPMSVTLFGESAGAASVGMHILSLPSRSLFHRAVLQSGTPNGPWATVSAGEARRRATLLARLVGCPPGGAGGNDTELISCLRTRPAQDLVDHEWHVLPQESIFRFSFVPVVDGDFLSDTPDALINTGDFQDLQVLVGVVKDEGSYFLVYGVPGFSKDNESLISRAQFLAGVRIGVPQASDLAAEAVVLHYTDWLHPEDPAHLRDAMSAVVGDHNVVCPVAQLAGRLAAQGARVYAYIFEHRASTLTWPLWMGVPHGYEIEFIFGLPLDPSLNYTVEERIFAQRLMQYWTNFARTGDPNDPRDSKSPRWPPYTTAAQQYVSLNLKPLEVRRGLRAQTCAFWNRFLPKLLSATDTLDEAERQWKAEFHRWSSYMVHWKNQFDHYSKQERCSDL
- PROCEDURE SUMMARY: Inhibition of Sprague-Dawley rat cortex AChE using acetylthiocholine iodide as substrate incubated for 15 mins in presence of iso-OMPA inhibitor by Ellman's method
PARAMETER MEASURED: IC50 (µM)
Give bare numbers, in µM.

These solved cases illustrate the format of a correct answer.
CN1CCN(C(=O)Oc2ccc(/C=C/c3cc(OC(=O)N4CCN(C)CC4)cc(OC(=O)N4CCN(C)CC4)c3)cc2)CC1 | 6.97
COc1cc(/C=C/c2ccc(OC(=O)N3CCN(C)CC3)cc2)cc(OC)c1 | 8.58

Query :: Specify reported IC50 for the molecule shown: `O=C(Oc1ccc(/C=C/c2cc(OC(=O)N3CCN(Cc4ccccc4)CC3)cc(OC(=O)N3CCN(Cc4ccccc4)CC3)c2)cc1)N1CCN(Cc2ccccc2)CC1`
Result :: 4.11

* * *

- TARGET: Amine oxidase [flavin-containing] A (Homo sapiens, UniProt P21397)
- Sequence (P21397 whole entry): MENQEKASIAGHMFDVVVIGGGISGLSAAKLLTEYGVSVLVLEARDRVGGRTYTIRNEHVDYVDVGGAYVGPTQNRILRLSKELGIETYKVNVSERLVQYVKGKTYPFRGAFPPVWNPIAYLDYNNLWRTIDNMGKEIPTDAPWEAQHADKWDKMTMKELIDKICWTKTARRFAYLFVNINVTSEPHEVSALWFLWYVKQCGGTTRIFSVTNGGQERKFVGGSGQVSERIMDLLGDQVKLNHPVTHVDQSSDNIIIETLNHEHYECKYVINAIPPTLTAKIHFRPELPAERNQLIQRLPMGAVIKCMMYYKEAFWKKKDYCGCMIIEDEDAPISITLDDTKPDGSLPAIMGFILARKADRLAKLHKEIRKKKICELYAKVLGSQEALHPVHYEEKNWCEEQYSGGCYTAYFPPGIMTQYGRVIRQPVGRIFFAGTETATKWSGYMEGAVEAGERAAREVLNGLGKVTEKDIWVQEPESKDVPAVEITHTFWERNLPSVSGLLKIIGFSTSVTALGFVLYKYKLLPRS
- PROCEDURE SUMMARY: Displacement of 14C-5-hydroxytryptamine creatinine disulfate from MAO-A (unknown origin) preincubated for 60 mins followed by substrate addition measured after 30 mins in presence of selegiline by liquid scintillation counting method
PARAMETER MEASURED: IC50

Query :: Specify reported IC50 for the compound shown: C#CCN(C)C(C)Cc1cccc(OC(=O)N(C)CC)c1 (stereo unspecified)
Result :: 120 nM

* * *

Listed here: molecules with reported pIC50 for Beta-secretase 1 (Homo sapiens, UniProt P56817).
Numbers only, as −log10 of the molar value.

CC1CCCCN1CCCNC(=O)c1cc(NC(=O)OC(C)(C)C)ccc1O (configuration not stated) | 7.81

Query :: Specify reported pIC50 for the molecule shown: `CC(C)(C)OC(=O)Nc1ccc(O)c(C(=O)NCCCN2CCCCC2)c1`
Result :: 7.82

* * *

Can you tell me pKi for the items I'm about to list?
- TARGET: Acetylcholinesterase (Homo sapiens, UniProt P22303)
- Sequence (P22303 whole entry): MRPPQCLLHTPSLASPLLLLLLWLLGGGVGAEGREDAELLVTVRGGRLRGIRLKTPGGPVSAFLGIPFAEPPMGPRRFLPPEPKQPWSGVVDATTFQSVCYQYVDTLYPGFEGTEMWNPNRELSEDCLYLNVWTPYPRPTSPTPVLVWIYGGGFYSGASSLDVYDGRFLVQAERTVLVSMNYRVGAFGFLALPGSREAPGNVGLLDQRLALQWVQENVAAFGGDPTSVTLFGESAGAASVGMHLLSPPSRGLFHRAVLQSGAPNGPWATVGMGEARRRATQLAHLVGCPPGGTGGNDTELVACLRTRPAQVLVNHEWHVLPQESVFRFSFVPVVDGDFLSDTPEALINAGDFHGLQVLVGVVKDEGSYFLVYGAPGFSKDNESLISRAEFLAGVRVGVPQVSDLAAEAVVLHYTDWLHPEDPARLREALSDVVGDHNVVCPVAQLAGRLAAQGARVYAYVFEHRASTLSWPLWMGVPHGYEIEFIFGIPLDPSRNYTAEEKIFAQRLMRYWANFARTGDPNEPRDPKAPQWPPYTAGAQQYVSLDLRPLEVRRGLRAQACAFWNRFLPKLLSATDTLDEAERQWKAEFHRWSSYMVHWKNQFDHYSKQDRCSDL
- PROCEDURE SUMMARY: Binding affinity to AChE (unknown origin) assessed as inhibition constant preincubated for 60 mins followed by substrate addition measured after 60 mins by colorimetric method
Numbers only, as −log10 of the molar value.

CC1CCCCN1CCCNC(=O)c1cc(NC(=O)OC(C)(C)C)ccc1O (configuration not stated) | 6.77

Query :: Specify reported pKi for the molecule shown: `CC(C)(C)OC(=O)Nc1ccc(O)c(C(=O)NCCCN2CCCCC2)c1`
Result :: 6.92

* * *

- TARGET: Acetylcholinesterase (Electrophorus electricus)
- Sequence (O42275 whole entry): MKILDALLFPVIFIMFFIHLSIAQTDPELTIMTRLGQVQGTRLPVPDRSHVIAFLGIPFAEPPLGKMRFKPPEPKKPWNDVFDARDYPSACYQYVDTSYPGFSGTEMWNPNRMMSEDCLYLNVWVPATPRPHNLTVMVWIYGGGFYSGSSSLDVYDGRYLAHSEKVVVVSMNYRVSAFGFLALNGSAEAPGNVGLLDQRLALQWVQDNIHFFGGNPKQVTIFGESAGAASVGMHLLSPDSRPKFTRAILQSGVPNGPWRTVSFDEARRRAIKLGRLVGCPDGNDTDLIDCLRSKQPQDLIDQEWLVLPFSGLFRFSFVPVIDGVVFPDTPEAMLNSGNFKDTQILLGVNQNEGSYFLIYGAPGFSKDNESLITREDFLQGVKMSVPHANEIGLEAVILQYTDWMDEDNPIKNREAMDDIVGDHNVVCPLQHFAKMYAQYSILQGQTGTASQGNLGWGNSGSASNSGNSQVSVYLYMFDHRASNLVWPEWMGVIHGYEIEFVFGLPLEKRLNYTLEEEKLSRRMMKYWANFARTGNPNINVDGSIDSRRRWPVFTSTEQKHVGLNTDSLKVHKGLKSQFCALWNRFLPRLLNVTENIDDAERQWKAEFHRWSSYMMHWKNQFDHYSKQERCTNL
- PROCEDURE SUMMARY: Inhibition of electric eel AChE using acetylthiocholine iodide as substrate incubated for 30 mins by Ellman's method
PARAMETER MEASURED: IC50 (µM)
Give bare numbers, in µM.

These solved cases illustrate the format of a correct answer.
COC(=O)CCC/C=C\C/C=C\C/C=C\CCOC(=O)Nc1ccc(Cl)cc1 | 20.2
COC(=O)CCC/C=C\C/C=C\C/C=C\CCOC(=O)Nc1ccc(OC)cc1 | 24.8
COC(=O)CCC/C=C\C/C=C\C/C=C\CCOC(=O)Nc1cccc(Cl)c1 | 16.8

Query :: Specify reported IC50 for the molecule shown: `COC(=O)CCC/C=C\C/C=C\C/C=C\CCOC(=O)Nc1ccc(Br)cc1`
Result :: 19.2

* * *

- TARGET: Cholinesterase (Homo sapiens, UniProt P06276)
- Sequence (P06276 whole entry): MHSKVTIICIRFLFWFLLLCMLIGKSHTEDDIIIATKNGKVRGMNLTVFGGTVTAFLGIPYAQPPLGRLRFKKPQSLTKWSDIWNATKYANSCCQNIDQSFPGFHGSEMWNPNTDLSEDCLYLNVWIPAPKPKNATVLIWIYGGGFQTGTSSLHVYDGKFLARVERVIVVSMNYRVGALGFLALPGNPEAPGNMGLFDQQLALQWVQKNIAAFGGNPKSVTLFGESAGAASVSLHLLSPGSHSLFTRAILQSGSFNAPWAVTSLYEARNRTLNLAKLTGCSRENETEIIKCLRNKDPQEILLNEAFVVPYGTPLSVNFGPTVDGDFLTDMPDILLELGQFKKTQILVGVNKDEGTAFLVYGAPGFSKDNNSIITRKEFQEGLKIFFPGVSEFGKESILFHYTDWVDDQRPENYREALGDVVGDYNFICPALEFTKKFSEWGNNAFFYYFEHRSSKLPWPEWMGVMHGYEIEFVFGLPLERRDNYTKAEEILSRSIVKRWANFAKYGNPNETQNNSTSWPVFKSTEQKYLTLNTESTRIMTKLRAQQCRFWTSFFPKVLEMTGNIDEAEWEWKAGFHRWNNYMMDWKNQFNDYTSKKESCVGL
- PROCEDURE SUMMARY: Binding affinity of human serum BChE assessed as inhibition constant by Ellman's method
PARAMETER MEASURED: pKi
Give bare numbers, as −log10 of the molar value.

Query :: Specify reported pKi for the molecule shown: `CC(C)c1ccc(NC(=O)Oc2ccc3c(c2)[C@]2(C)CCN(Cc4ccc(F)cc4)[C@@H]2N3C)cc1`
Result :: 6.47
